Target: T1, Human plasmin (human, UniProt P00747 97-810)
T1 construct: mature
T1 sequence (P00747 97-810): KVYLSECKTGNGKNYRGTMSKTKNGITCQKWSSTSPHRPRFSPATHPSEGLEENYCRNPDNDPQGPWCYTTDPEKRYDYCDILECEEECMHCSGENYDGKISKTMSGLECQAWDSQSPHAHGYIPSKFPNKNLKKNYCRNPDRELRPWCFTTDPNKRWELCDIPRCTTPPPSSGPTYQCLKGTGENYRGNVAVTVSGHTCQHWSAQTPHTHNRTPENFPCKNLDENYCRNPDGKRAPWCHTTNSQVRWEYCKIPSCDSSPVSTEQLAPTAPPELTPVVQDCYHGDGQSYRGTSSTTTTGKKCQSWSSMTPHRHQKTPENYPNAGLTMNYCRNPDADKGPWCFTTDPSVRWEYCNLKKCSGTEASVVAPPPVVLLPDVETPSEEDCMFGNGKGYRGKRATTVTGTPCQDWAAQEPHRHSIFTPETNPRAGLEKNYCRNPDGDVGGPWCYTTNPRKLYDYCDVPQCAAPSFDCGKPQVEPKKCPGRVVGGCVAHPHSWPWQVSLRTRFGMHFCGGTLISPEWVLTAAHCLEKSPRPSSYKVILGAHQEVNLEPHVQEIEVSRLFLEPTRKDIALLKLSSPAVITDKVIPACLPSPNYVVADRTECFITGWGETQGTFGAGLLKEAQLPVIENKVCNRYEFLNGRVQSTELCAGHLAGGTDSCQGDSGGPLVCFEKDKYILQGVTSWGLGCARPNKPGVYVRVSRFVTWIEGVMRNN
Assay: progress curves of S-2251 hydrolysis, 18 nM plasmin, n = 6, global fit to Eq. 1-3
pKi: −log10 of the molar value.
Parameter: pKi. Scope: all listed entries.
PROPERTY_NAME: pKi

[[record]]
binder = "Textilinin 2 (other, also called Txln 2) KDRPELCELPPDTGPCRVRFPSFYYNPDEQKCLEFIYGGCEGNANNFITKEECESTCAA"
property_name = "pKi"
readout_number = 8.55

[[record]]
binder = "Textilinin 1 (other, also called Txln 1) KDRPDFCELPADTGPCRVRFPSFYYNPDEKKCLEFIYGGCEGNANNFITKEECESTCAA"
property_name = "pKi"
readout_number = 8.59

